# ASSAY TARGET: αvβ6 integrin (Homo sapiens, UniProt P06756+P18564)
# Construct: All purified integrins were purchased from R&D Systems (MN, USA)
# Sequence (P06756 31-992 limits assumed): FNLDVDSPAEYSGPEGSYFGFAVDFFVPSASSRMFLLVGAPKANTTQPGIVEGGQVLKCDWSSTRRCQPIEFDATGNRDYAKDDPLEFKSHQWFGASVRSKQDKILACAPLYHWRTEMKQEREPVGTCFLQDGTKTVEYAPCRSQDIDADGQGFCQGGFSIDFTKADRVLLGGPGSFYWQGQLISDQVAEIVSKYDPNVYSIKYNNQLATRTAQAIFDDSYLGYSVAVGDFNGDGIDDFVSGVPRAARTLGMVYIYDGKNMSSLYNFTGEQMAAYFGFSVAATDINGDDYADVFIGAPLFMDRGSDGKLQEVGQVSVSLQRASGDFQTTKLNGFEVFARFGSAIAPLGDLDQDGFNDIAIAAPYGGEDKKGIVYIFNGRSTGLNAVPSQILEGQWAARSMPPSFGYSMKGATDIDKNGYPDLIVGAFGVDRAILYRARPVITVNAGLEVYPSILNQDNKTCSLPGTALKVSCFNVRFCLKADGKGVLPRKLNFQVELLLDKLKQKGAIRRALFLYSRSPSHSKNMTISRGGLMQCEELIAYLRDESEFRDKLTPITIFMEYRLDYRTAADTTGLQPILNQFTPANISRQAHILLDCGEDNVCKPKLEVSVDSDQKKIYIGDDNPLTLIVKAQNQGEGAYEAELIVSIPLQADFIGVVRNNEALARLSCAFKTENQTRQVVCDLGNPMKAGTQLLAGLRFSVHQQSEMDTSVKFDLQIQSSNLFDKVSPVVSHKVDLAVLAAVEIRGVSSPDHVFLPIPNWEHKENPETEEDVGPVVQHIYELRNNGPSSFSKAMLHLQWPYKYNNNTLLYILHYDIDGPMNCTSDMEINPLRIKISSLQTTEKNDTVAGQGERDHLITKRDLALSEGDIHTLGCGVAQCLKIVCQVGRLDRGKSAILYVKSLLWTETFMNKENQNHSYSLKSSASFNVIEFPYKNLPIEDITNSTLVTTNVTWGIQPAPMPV
# Sequence (P18564 22-707 limits assumed): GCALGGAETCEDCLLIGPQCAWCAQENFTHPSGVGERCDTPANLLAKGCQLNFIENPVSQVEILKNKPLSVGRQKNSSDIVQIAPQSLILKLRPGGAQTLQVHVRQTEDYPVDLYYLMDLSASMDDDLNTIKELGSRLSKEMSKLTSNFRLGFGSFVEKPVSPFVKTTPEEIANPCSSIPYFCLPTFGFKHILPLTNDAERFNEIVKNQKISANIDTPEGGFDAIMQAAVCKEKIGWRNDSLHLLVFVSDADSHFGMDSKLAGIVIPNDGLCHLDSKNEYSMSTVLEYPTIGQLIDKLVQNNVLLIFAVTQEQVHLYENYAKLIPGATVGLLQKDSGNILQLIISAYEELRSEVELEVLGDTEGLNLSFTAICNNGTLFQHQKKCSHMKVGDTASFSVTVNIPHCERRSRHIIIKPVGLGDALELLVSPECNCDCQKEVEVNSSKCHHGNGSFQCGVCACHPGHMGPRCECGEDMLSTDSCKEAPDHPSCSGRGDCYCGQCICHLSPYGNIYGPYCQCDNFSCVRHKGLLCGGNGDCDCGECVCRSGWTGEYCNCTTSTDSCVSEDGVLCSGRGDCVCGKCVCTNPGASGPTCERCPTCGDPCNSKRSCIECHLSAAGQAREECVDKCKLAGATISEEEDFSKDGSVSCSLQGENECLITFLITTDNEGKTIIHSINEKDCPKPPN
# TEST DESCRIPTION: Competitive binding ELISA against biotinylated LAP (BtLAP), αvβ6 integrin
pIC50: −log10 of the molar value. Where a SMILES comes first, the peptide text is derived from it. The star is where a group is joined. Benzoyl(4-F) = O=C(c1ccc(F)cc1)*

COMPOUND	pIC50
CC(C)C[C@H](NC(=O)[C@H](CC(=O)O)NC(=O)CNC(=O)[C@@H](N)CCCNC(=N)N)C(=O)N[C@@H](C)C(=O)N[C@@H](CC(=O)O)C(=O)N[C@@H](CC(C)C)C(=O)N[C@@H](CCCNC(=N)N)C(=O)N[C@@H](CCCCNC(=O)c1ccc(F)cc1)C(N)=O [P3] (H-RGDLADLRK(Benzoyl(4-F))-NH2)	6.38
CC(C)C[C@H](NC(=O)[C@H](Cc1ccc(O)cc1)NC(=O)[C@@H](NC(=O)[C@H](CC(C)C)NC(=O)[C@H](CC(=O)O)NC(=O)CNC(=O)[C@@H](N)C(C)C)[C@@H](C)O)C(=O)N[C@@H](CCCCN)C(=O)N[C@@H](CCCCNC(=O)c1ccc(F)cc1)C(N)=O [P1] (H-VGDLTYLKK(Benzoyl(4-F))-NH2)	6.35
CC(C)C[C@H](NC(=O)[C@H](CO)NC(=O)[C@H](CC(=O)O)NC(=O)[C@H](CC(C)C)NC(=O)[C@H](CC(=O)O)NC(=O)[C@@H](NC(=O)[C@H](CCCNC(=N)N)NC(=O)c1ccc(F)cc1)[C@@H](C)O)C(=O)N[C@@H](CCCNC(=N)N)C(=O)N[C@@H](CCC(N)=O)C(=O)N[C@@H](CCCCN)C(=O)N[C@H](C(=O)N[C@@H](C)C(=O)N[C@@H](CCCNC(=N)N)C(=O)N[C@H](C(N)=O)[C@@H](C)O)C(C)C [RTD-14mer] ({Benzoyl(4-F)}-RTDLDSLRQKVART-NH2)	9.40
CC(C)C[C@H](NC(=O)[C@H](CC(=O)O)NC(=O)[C@H](CO)NC(=O)[C@H](CCCNC(=N)N)NC(=O)c1ccc(F)cc1)C(=O)N[C@H](C(=O)N1CCC[C@H]1C(=O)N[C@@H](CC(C)C)C(=O)N[C@@H](Cc1ccccc1)C(=O)N[C@@H](CCC(N)=O)C(=O)N[C@@H](CCCCN)C(=O)N[C@H](C(=O)N[C@@H](C)C(=O)N[C@@H](CCCNC(=N)N)C(=O)N[C@H](C(N)=O)[C@@H](C)O)C(C)C)[C@@H](C)O [KL3Q] ({Benzoyl(4-F)}-RSDLTPLFQKVART-NH2)	8.06
CC(C)C[C@H](NC(=O)[C@H](CCCNC(=N)N)NC(=O)CNC(=O)[C@H](CC(C)C)NC(=O)[C@H](CC(=O)O)NC(=O)CNC(=O)[C@H](CCCNC(=N)N)NC(=O)CNC(=O)c1ccc(F)cc1)C(N)=O [SFLAP3-8mer, reference compound] ({Benzoyl(4-F)}-GRGDLGRL-NH2)	7.05
CC(C)C[C@H](NC(=O)[C@H](Cc1ccc(O)cc1)NC(=O)[C@@H](NC(=O)[C@H](CC(C)C)NC(=O)[C@H](CC(=O)O)NC(=O)CNC(=O)[C@@H](NC(=O)c1ccc(F)cc1)C(C)C)[C@@H](C)O)C(=O)N[C@@H](CCCCN)C(=O)N[C@@H](CCCNC(=N)N)C(=O)N[C@@H](CCCCN)C(=O)N[C@@H](C)C(=O)N[C@H](C(=O)N[C@H](C(=O)N[C@@H](CCC(N)=O)C(N)=O)C(C)C)[C@@H](C)O [P1Q-Scrb] ({Benzoyl(4-F)}-VGDLTYLKRKATVQ-NH2)	7.85

###

// reported IC50 per item
# ASSAY TARGET: αvβ6 integrin (Homo sapiens, UniProt P06756+P18564)
# Construct: All purified integrins were purchased from R&D Systems (MN, USA)
# TEST DESCRIPTION: Competitive binding ELISA against biotinylated LAP (BtLAP), αvβ6 integrin
Where a SMILES comes first, the peptide text is derived from it. The star is where a group is joined. Benzoyl(4-F) = O=C(c1ccc(F)cc1)*
QUANTITY: IC50 (nM)

COMPOUND	QUANTITY	REPORTED
CC(C)C[C@H](NC(=O)[C@H](Cc1ccc(O)cc1)NC(=O)[C@@H](NC(=O)[C@H](CC(C)C)NC(=O)[C@H](CC(=O)O)NC(=O)CNC(=O)[C@@H](NC(=O)c1ccc(F)cc1)C(C)C)[C@@H](C)O)C(=O)N[C@@H](CCCCN)C(=O)N[C@@H](CCCCN)C(=O)N[C@@H](CCCCN)C(=O)N[C@H](C(=O)N[C@@H](C)C(=O)N[C@@H](CCCNC(=N)N)C(=O)N[C@H](C(N)=O)[C@@H](C)O)C(C)C	IC50	10
CC(C)C[C@H](NC(=O)[C@H](Cc1ccc(O)cc1)NC(=O)[C@@H](NC(=O)[C@H](CC(C)C)NC(=O)[C@H](CC(=O)O)NC(=O)CNC(=O)[C@@H](NC(=O)c1ccc(F)cc1)C(C)C)[C@@H](C)O)C(=O)N[C@@H](CCCCN)C(=O)N[C@@H](CCC(N)=O)C(=O)N[C@@H](CCCCN)C(=O)N[C@H](C(=O)N[C@@H](C)C(=O)N[C@@H](CCCNC(=N)N)C(=O)N[C@H](C(N)=O)[C@@H](C)O)C(C)C	IC50	12
CC(C)C[C@H](NC(=O)[C@H](CC(=O)O)NC(=O)CNC(=O)[C@H](CCCNC(=N)N)NC(=O)c1ccc(F)cc1)C(=O)N[C@@H](C)C(=O)N[C@@H](CC(=O)O)C(=O)N[C@@H](CC(C)C)C(=O)N[C@@H](CCCNC(=N)N)C(=O)N[C@@H](CCC(N)=O)C(=O)N[C@@H](CCCCN)C(=O)N[C@H](C(=O)N[C@@H](C)C(=O)N[C@@H](CCCNC(=N)N)C(=O)N[C@H](C(N)=O)[C@@H](C)O)C(C)C [P3Q] ({Benzoyl(4-F)}-RGDLADLRQKVART-NH2)	IC50	4

###

# TEST DESCRIPTION: Circular dichroism (CD) spectroscopy
# Assay type: physicochemical
# CONDITION SET: 25 mM phosphate + 100 mM NaF
Where a SMILES comes first, the peptide text is derived from it. The star is where a group is joined. Benzoyl(4-F) = O=C(c1ccc(F)cc1)*
Decide by % Helical Content CD Buffer: equal to or exceeding 10% means Met, less means Not met.

COMPOUND	ASSIGNED LABEL
CC(C)C[C@H](NC(=O)[C@H](Cc1ccc(O)cc1)NC(=O)[C@@H](NC(=O)[C@H](CC(C)C)NC(=O)[C@H](CC(=O)O)NC(=O)CNC(=O)[C@@H](N)C(C)C)[C@@H](C)O)C(=O)N[C@@H](CCCCN)C(=O)N[C@@H](CCCCNC(=O)c1ccc(F)cc1)C(N)=O [P1] (H-VGDLTYLKK(Benzoyl(4-F))-NH2)	Not met
CC(C)C[C@H](NC(=O)[C@H](CO)NC(=O)[C@H](CC(=O)O)NC(=O)[C@H](CC(C)C)NC(=O)[C@H](CC(=O)O)NC(=O)[C@@H](NC(=O)[C@H](CCCNC(=N)N)NC(=O)c1ccc(F)cc1)[C@@H](C)O)C(=O)N[C@@H](CCCNC(=N)N)C(=O)N[C@H](C(N)=O)[C@@H](C)O [RTD-9mer, reference compound]	Not met
CC(C)C[C@H](NC(=O)[C@H](CO)NC(=O)[C@H](CC(=O)O)NC(=O)[C@H](CC(C)C)NC(=O)[C@H](CC(=O)O)NC(=O)[C@@H](NC(=O)[C@H](CCCNC(=N)N)NC(=O)c1ccc(F)cc1)[C@@H](C)O)C(=O)N[C@@H](CCCNC(=N)N)C(=O)N[C@@H](CCC(N)=O)C(=O)N[C@@H](CCCCN)C(=O)N[C@H](C(=O)N[C@@H](C)C(=O)N[C@@H](CCCNC(=N)N)C(=O)N[C@H](C(N)=O)[C@@H](C)O)C(C)C [RTD-14mer] ({Benzoyl(4-F)}-RTDLDSLRQKVART-NH2)	Met
CC(C)C[C@H](NC(=O)[C@H](CCCNC(=N)N)NC(=O)CNC(=O)[C@H](CC(C)C)NC(=O)[C@H](CC(=O)O)NC(=O)CNC(=O)[C@H](CCCNC(=N)N)NC(=O)CNC(=O)c1ccc(F)cc1)C(N)=O [SFLAP3-8mer, reference compound] ({Benzoyl(4-F)}-GRGDLGRL-NH2)	Met
CC(C)C[C@H](NC(=O)[C@H](CC(=O)O)NC(=O)CNC(=O)[C@H](CCCNC(=N)N)NC(=O)c1ccc(F)cc1)C(=O)N[C@@H](C)C(=O)N[C@@H](CC(=O)O)C(=O)N[C@@H](CC(C)C)C(=O)N[C@@H](CCCNC(=N)N)C(=O)N[C@@H](CCC(N)=O)C(=O)N[C@@H](CCCCN)C(=O)N[C@H](C(=O)N[C@@H](C)C(=O)N[C@@H](CCCNC(=N)N)C(=O)N[C@H](C(N)=O)[C@@H](C)O)C(C)C [P3Q] ({Benzoyl(4-F)}-RGDLADLRQKVART-NH2)	Met
